Origin of the recorded values: paper PMC9572860

test: In vitro cytotoxicity with L-6 cells; type: cell-based, rat; details: rat
Experimental endpoint: IC50 at 72 h
Please give the number followed by its unit.

# example entries with known answers
[
  {
    "Molecule": "Cc1ccc([C@@H](NCCN2CC3C(c4ccccc4)CC(N4CCCCC4)(CC3c3ccccc3)C2)c2nnnn2C(C)(C)C)cc1 (mixture of isomers) [Compound 13A]",
    "IC50 at 72 h": "2.55 µM"
  },
  {
    "Molecule": "CC(C)(C)C(NCCN1CC2[C@@H](c3ccccc3)CC(N3CCCCC3)(C[C@@H]2c2ccccc2)C1)c1nnnn1C(C)(C)C (mixture of isomers) [Compound 11B]",
    "IC50 at 72 h": "6.59 µM"
  }
]

# ---- query molecule ----
### Prompt Tell me the measured IC50 at 72 h of CC(C)(C)n1nnnc1CNCCN1CC2[C@H](c3ccccc3)CC(N3CCCCC3)(C[C@H]2c2ccccc2)C1 (racemic) , please.
### Response 17 µM
